Measured inhibition, listed per entry for reference.
target: Serine/threonine-protein kinase 16 (Homo sapiens); test: Inhibition of STK16 at 10 uM after 60 mins by TR-FRET assay
Numeric only. Scale: %

O=c1[nH]nc(-c2ccnc(NC3CCCCC3)c2)n1-c1ccc2ccccc2c1; -1
O=c1[nH]nc(-c2ccnc(NC3CCOCC3)c2)n1-c1ccc2ccccc2c1; 38
O=c1[nH]nc(-c2ccnc(NC3CCCOC3)c2)n1-c1ccc2ccccc2c1 (centres undefined); 21

Consider the additional compound presented here.
Reported inhibition, compound O=c1n(Cc2ccccn2)nc(-c2ccnc(NC3CCOCC3)c2)n1-c1ccc2ccccc2c1 : ____
-9

====

biological target: Dual specificity protein kinase CLK1 (Homo sapiens) (UniProt P49759); experiment: Inhibition of CLK1 at 10 uM after 60 mins by TR-FRET assay
Sequence (P49759 whole entry, looked up): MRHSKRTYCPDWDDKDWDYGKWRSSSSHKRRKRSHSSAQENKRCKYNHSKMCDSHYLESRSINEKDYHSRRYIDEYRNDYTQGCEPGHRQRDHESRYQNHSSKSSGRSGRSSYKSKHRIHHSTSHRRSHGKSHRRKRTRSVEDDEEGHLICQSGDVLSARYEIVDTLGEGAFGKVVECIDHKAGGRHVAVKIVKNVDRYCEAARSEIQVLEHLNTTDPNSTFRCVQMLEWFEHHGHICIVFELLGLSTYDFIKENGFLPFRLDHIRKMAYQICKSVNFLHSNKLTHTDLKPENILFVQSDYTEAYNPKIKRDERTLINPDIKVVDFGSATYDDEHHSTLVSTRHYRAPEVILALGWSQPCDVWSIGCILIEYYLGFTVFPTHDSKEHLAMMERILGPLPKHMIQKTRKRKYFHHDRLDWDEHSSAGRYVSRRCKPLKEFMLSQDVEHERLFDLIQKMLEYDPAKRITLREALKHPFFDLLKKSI
metric: inhibition (%)
Numeric only. Scale: %

Worked cases, answers included:
O=c1[nH]nc(-c2ccnc(NC3CCCOC3)c2)n1-c1ccc2ccccc2c1 (stereo unspecified); 22
O=c1n(C2CCOCC2)nc(-c2ccnc(NC3CCCCC3)c2)n1-c1ccc2ccccc2c1; 4
O=c1n(Cc2ccccn2)nc(-c2ccnc(NC3CCOCC3)c2)n1-c1ccc2ccccc2c1; 2
O=c1n(Cc2ccncc2)nc(-c2ccnc(NC3CCCCC3)c2)n1-c1ccc2ccccc2c1; 3
O=c1[nH]nc(-c2ccnc(NC3CCOCC3)c2)n1-c1ccc2ccccc2c1; 6

Provide value of inhibition for this record tested with Dual specificity protein kinase CLK1 (Homo sapiens) (UniProt P49759): O=c1[nH]nc(-c2ccnc(NC3CCCCC3)c2)n1-c1ccc2ccccc2c1
7

====

Measured inhibition, listed per entry for reference.
molecular target: Rho-associated protein kinase 2 (Homo sapiens) (UniProt O75116); experiment: Inhibition of ROCK2 at 10 uM after 60 mins by TR-FRET assay
Sequence (O75116 whole entry, looked up): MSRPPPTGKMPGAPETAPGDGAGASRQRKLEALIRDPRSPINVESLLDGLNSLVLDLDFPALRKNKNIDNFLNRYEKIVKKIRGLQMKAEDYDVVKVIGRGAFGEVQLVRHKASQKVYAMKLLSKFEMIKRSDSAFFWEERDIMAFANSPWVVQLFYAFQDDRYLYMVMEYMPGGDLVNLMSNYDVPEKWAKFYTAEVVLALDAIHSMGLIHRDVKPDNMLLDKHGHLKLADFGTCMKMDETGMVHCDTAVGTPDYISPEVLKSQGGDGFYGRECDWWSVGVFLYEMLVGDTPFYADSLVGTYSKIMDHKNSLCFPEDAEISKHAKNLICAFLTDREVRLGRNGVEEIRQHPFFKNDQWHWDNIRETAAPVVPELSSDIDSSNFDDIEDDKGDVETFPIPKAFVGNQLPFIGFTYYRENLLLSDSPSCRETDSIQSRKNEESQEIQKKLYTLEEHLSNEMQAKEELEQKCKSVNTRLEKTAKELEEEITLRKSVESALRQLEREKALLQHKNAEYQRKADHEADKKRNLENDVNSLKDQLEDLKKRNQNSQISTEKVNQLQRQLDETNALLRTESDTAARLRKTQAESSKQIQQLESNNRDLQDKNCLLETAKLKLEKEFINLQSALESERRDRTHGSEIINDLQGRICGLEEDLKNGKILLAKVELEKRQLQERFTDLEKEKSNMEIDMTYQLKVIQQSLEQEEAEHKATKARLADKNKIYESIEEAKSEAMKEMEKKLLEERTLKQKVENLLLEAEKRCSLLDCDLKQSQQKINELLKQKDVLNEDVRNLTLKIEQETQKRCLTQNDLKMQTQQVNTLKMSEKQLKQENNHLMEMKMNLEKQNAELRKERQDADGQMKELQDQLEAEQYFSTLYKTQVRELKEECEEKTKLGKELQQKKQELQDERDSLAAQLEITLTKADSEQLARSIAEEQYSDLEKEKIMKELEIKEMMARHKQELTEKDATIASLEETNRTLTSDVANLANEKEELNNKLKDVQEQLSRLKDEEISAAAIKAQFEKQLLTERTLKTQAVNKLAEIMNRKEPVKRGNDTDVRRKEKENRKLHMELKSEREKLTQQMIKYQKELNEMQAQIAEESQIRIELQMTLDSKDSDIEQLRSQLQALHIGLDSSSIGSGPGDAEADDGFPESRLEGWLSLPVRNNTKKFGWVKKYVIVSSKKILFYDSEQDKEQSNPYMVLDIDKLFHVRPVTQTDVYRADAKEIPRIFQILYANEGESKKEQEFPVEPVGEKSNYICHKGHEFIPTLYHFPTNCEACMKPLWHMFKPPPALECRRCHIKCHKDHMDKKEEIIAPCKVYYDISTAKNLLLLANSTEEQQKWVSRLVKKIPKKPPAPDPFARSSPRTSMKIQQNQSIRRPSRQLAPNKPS
Numeric only. Scale: %

Worked cases, answers included:
O=c1[nH]nc(-c2ccnc(NC3CCOCC3)c2)n1-c1ccc2ccccc2c1; 10
O=c1[nH]nc(-c2ccnc(NC3CCCCC3)c2)n1-c1ccc2ccccc2c1; 15
O=c1n(Cc2ccncc2)nc(-c2ccnc(NC3CCCCC3)c2)n1-c1ccc2ccccc2c1; 6
O=c1n(Cc2ccccn2)nc(-c2ccnc(NC3CCOCC3)c2)n1-c1ccc2ccccc2c1; 5

Reported inhibition, compound O=c1n(C2CCOCC2)nc(-c2ccnc(NC3CCCCC3)c2)n1-c1ccc2ccccc2c1 : ____
9

Reported inhibition, compound O=c1[nH]nc(-c2ccnc(NC3CCCOC3)c2)n1-c1ccc2ccccc2c1 (stereo unspecified) : ____
8

====

Measured inhibition, listed per entry for reference.
target: Calcium/calmodulin-dependent protein kinase type II subunit alpha (Homo sapiens) (UniProt Q9UQM7); assay: Inhibition of CAMK2A at 10 uM after 60 mins by TR-FRET assay
Sequence (Q9UQM7 whole entry): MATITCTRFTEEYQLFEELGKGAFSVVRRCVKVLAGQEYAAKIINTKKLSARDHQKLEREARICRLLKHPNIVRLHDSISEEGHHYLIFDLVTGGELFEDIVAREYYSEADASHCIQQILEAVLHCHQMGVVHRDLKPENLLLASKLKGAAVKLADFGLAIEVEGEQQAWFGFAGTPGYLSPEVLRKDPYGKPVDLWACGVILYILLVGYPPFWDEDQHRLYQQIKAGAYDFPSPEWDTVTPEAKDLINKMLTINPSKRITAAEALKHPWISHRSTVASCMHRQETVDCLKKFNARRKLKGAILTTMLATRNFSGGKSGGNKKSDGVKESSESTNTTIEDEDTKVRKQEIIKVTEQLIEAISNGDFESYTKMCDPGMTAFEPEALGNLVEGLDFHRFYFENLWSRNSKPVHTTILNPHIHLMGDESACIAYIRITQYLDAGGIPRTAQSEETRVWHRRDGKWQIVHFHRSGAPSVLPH
Numeric only. Scale: %

Reported inhibition, compound O=c1n(Cc2ccccn2)nc(-c2ccnc(NC3CCOCC3)c2)n1-c1ccc2ccccc2c1 : ____
8

Reported inhibition, compound O=c1n(Cc2ccncc2)nc(-c2ccnc(NC3CCCCC3)c2)n1-c1ccc2ccccc2c1 : ____
2

Reported inhibition, compound O=c1[nH]nc(-c2ccnc(NC3CCCCC3)c2)n1-c1ccc2ccccc2c1 : ____
22

Reported inhibition, compound O=c1[nH]nc(-c2ccnc(NC3CCCOC3)c2)n1-c1ccc2ccccc2c1 (stereo unspecified) : ____
38

Reported inhibition, compound O=c1n(C2CCOCC2)nc(-c2ccnc(NC3CCCCC3)c2)n1-c1ccc2ccccc2c1 : ____
19

Reported inhibition, compound O=c1[nH]nc(-c2ccnc(NC3CCOCC3)c2)n1-c1ccc2ccccc2c1 : ____
11

====

biological target: PI3-kinase p110-alpha/p85-alpha (Homo sapiens) (UniProt P27986+P42336); assay: Inhibition of p110alpha/p85alpha at 10 uM after 60 mins by TR-FRET assay; type: protein-complex assay
metric: inhibition (%)
Numeric only. Scale: %

Worked cases, answers included:
O=c1[nH]nc(-c2ccnc(NC3CCOCC3)c2)n1-c1ccc2ccccc2c1; 49
O=c1n(Cc2ccccn2)nc(-c2ccnc(NC3CCOCC3)c2)n1-c1ccc2ccccc2c1; -5
O=c1n(C2CCOCC2)nc(-c2ccnc(NC3CCCCC3)c2)n1-c1ccc2ccccc2c1; 0
O=c1[nH]nc(-c2ccnc(NC3CCCCC3)c2)n1-c1ccc2ccccc2c1; 29
O=c1n(Cc2ccncc2)nc(-c2ccnc(NC3CCCCC3)c2)n1-c1ccc2ccccc2c1; 6

Consider the additional compound presented here.
Provide value of inhibition for this record tested with PI3-kinase p110-alpha/p85-alpha (Homo sapiens) (UniProt P27986+P42336): O=c1[nH]nc(-c2ccnc(NC3CCCOC3)c2)n1-c1ccc2ccccc2c1 (stereo unspecified)
34

====

Measured log10 IC50, listed per entry for reference.
target: Mitogen-activated protein kinase 9 (Homo sapiens, UniProt P45984); test: Inhibition of recombinant JNK2 after 60 mins by TR-FRET assay
Sequence (P45984 whole entry): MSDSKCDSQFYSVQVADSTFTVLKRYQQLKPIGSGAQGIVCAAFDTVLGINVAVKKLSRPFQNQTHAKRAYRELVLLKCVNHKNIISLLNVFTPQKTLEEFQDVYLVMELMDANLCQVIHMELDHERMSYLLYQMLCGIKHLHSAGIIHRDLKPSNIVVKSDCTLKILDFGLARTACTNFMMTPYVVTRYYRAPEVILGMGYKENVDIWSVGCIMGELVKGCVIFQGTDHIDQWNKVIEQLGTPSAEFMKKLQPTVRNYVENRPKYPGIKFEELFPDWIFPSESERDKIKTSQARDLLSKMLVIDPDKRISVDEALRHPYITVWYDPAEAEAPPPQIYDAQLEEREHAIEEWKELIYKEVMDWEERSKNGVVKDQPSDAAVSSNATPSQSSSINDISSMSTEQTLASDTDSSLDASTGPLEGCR
Please be aware that the numbers have been log10-transformed from IC50 in nM.

Reported log10 IC50, compound Nc1cccc2ccc(-n3c(-c4ccnc(NC5CCOCC5)c4)n[nH]c3=O)cc12 : ____
2.76

Reported log10 IC50, compound O=C(Nc1cc(-c2n[nH]c(=O)n2-c2ccc3ccccc3c2)ccn1)c1ccccc1 : ____
3.64

Reported log10 IC50, compound O=c1n(C2CCN(CC(F)(F)F)CC2)nc(-c2ccnc(NC3CCOCC3)c2)n1-c1ccc2ccccc2c1 : ____
2.23

Reported log10 IC50, compound O=c1[nH]nc(-c2ccnc(NC3CCOCC3)c2)n1-c1ccc2cc(Br)ccc2c1 : ____
2.89

Reported log10 IC50, compound O=c1n(C2CCOC2)nc(-c2ccnc(NC3CCOCC3)c2)n1-c1ccc2ccccc2c1 (stereo unspecified) : ____
2.51

Reported log10 IC50, compound O=c1[nH]nc(-c2ccnc(Nc3cccnc3)c2)n1-c1ccc2ccccc2c1 : ____
2.98

====

assay: Oxidative metabolic stability in mouse liver microsomes assessed as compound remaining at 2 uM after 30 mins; assay type: ADME, Microsome; conditions: read-out: Stability
Measured remaining at 0.5 h, 2 µM, listed per entry for reference.
Numeric only. Scale: %

Worked cases, answers included:
O=c1[nH]nc(-c2ccnc(NC3CCCCC3)c2)n1-c1ccc2ccccc2c1; 2.6
O=c1n(-c2ccccn2)nc(-c2ccnc(NC3CCOCC3)c2)n1-c1ccc2ccccc2c1; 1.5
O=c1n(C2CCOC2)nc(-c2ccnc(NC3CCOCC3)c2)n1-c1ccc2ccccc2c1 (configuration not stated); 1.6
O=c1n(Cc2ccncc2)nc(-c2ccnc(NC3CCCCC3)c2)n1-c1ccc2ccccc2c1; 48
O=c1[nH]nc(-c2ccnc(NC3CCOCC3)c2)n1-c1ccc2ccccc2c1; 12
O=c1[nH]nc(-c2ccnc(NC3CCOCC3)c2)n1-c1ccc2cc(F)ccc2c1; 100

Reported remaining at 0.5 h, 2 µM, compound O=c1n(Cc2ccccn2)nc(-c2ccnc(NC3CCOCC3)c2)n1-c1ccc2ccccc2c1 : ____
1.4

====

Measured inhibition, listed per entry for reference.
molecular target: Tyrosine-protein kinase Lck (Homo sapiens) (UniProt P06239); experiment: Inhibition of LCK at 10 uM after 60 mins by TR-FRET assay
Sequence (P06239 2-509 limits assumed): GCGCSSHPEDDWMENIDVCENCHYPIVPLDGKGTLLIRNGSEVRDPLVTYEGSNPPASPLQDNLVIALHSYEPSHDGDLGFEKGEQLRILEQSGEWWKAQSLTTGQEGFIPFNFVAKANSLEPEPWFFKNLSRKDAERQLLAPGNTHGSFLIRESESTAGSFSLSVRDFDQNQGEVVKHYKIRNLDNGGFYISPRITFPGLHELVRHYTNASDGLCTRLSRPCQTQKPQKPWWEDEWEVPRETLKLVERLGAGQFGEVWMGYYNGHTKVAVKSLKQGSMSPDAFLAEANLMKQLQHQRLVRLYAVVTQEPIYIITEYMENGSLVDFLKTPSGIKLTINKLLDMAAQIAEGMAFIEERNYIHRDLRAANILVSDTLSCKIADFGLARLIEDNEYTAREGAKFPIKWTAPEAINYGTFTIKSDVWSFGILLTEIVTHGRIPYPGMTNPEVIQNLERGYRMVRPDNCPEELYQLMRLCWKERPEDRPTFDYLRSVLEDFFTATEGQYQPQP
I'd appreciate it if you wrote the number followed by its unit.

Worked cases, answers included:
O=c1[nH]nc(-c2ccnc(NC3CCCCC3)c2)n1-c1ccc2ccccc2c1; -10%
O=c1n(Cc2ccncc2)nc(-c2ccnc(NC3CCCCC3)c2)n1-c1ccc2ccccc2c1; 9%
O=c1n(Cc2ccccn2)nc(-c2ccnc(NC3CCOCC3)c2)n1-c1ccc2ccccc2c1; -2%
O=c1n(C2CCOCC2)nc(-c2ccnc(NC3CCCCC3)c2)n1-c1ccc2ccccc2c1; -6%
O=c1[nH]nc(-c2ccnc(NC3CCOCC3)c2)n1-c1ccc2ccccc2c1; -3%

Consider the additional compound presented here.
Reported inhibition, compound O=c1[nH]nc(-c2ccnc(NC3CCCOC3)c2)n1-c1ccc2ccccc2c1 (stereo unspecified) : ____
4%

====

molecular target: Dual specificity tyrosine-phosphorylation-regulated kinase 1B (Homo sapiens) (UniProt Q9Y463); assay: Inhibition of DYRK1B at 10 uM after 60 mins by TR-FRET assay
Sequence (Q9Y463 whole entry, looked up): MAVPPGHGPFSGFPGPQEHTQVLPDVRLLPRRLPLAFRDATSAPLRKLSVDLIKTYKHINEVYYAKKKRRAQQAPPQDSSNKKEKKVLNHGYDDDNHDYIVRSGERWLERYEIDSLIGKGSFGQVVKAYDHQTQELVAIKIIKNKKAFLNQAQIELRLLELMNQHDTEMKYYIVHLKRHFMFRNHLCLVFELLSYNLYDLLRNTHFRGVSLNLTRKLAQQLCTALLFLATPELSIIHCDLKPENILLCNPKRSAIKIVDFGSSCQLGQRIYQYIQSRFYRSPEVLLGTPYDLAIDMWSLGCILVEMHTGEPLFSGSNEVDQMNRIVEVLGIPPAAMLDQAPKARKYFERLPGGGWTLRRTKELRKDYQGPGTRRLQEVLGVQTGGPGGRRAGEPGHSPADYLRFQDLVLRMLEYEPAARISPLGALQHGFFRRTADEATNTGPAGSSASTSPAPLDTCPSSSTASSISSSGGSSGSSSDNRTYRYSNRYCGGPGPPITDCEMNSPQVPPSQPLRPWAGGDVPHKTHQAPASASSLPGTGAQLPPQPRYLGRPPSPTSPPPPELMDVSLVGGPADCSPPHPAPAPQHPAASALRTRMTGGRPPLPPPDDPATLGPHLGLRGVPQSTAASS
metric: inhibition (%)
Numeric only. Scale: %

Worked cases, answers included:
O=c1[nH]nc(-c2ccnc(NC3CCOCC3)c2)n1-c1ccc2ccccc2c1; 22
O=c1n(Cc2ccncc2)nc(-c2ccnc(NC3CCCCC3)c2)n1-c1ccc2ccccc2c1; 18
O=c1n(C2CCOCC2)nc(-c2ccnc(NC3CCCCC3)c2)n1-c1ccc2ccccc2c1; 39

Reported inhibition, compound O=c1[nH]nc(-c2ccnc(NC3CCCCC3)c2)n1-c1ccc2ccccc2c1 : ____
20

Reported inhibition, compound O=c1[nH]nc(-c2ccnc(NC3CCCOC3)c2)n1-c1ccc2ccccc2c1 (stereo unspecified) : ____
76

Reported inhibition, compound O=c1n(Cc2ccccn2)nc(-c2ccnc(NC3CCOCC3)c2)n1-c1ccc2ccccc2c1 : ____
1

====

molecular target: Mitogen-activated protein kinase 8 (Homo sapiens, UniProt P45983); assay: Inhibition of recombinant JNK1 after 60 mins by TR-FRET assay
Sequence (P45983 whole entry): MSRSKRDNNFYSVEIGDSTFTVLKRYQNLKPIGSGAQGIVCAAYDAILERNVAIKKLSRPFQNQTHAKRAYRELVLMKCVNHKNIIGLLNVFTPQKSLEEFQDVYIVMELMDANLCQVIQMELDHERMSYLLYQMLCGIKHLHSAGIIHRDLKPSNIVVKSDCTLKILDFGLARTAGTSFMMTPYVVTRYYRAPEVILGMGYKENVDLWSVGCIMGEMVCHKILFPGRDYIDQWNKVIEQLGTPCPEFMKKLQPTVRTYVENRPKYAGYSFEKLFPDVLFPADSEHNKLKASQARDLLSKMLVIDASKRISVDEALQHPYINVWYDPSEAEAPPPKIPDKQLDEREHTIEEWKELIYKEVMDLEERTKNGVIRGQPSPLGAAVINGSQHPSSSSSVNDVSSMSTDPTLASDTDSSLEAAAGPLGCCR
Measured IC50, listed per entry for reference.
Numeric only. Scale: nM

Worked cases, answers included:
O=c1n(C2CCOCC2)nc(-c2ccnc(NC3CCCCC3)c2)n1-c1ccc2ccccc2c1; 420
O=c1[nH]nc(-c2ccnc(NC3CCOCC3)c2)n1-c1ccc2cccc(Cl)c2c1; 110
CC(=O)Nc1cc(-c2n[nH]c(=O)n2-c2ccc3ccccc3c2)ccn1; 7200
O=c1[nH]nc(-c2ccnc(NC3CCCCC3)c2)n1-c1ccc2ccccc2c1; 1000

Provide value of IC50 for this record tested with Mitogen-activated protein kinase 8 (Homo sapiens, UniProt P45983): O=C(Nc1cc(-c2n[nH]c(=O)n2-c2ccc3ccccc3c2)ccn1)C1CC1
4600

Provide value of IC50 for this record tested with Mitogen-activated protein kinase 8 (Homo sapiens, UniProt P45983): O=c1[nH]nc(-c2ccnc(Nc3ccccc3)c2)n1-c1ccc2ccccc2c1
5700

Provide value of IC50 for this record tested with Mitogen-activated protein kinase 8 (Homo sapiens, UniProt P45983): O=c1[nH]nc(-c2ccnc(Nc3ccccn3)c2)n1-c1ccc2ccccc2c1
2200
